Each entry below carries its reported microsomal CLint.
- METHOD SUMMARY: Liver microsomal stability, human
- Format: in vitro ADME
- SETUP CONDITIONS: pH 7.4, liver microsomes

COMPOUND	microsomal CLint
CCCCNC(=O)NS(=O)(=O)c1ccc(C(F)(F)F)cc1N1CCN(Cc2nc3ccccc3n2C)CC1 [Compound A-10]	99 µL/min/mg

Request: Name the reported microsomal CLint value associated with the compound CC(C)Cc1cc(F)c(-c2nn[nH]n2)c(N2CC(C)N(Cc3cccnn3)C(C)C2)c1 (stereo not drawn) [Compound A-184]
Response: 18 µL/min/mg

Request: Name the reported microsomal CLint value associated with the compound CC(C)Cc1cc(F)c(-c2nn[nH]n2)c(N2CC(C)N(Cc3cccnn3)CC2C)c1 (stereo not drawn) [Compound A-183]
Response: 7 µL/min/mg

Request: Name the reported microsomal CLint value associated with the compound CC(C)Cc1cc(F)c(-c2nn[nH]n2)c(N2CCN(Cc3ccccn3)[C@@H](C)C2)c1 [Compound A-217]
Response: < 6.6 µL/min/mg

Request: Name the reported microsomal CLint value associated with the compound Cc1ccnc(CN2CCN(c3cc(CC(C)C)cc(F)c3-c3nn[nH]n3)C[C@@H]2C)c1 [Compound A-229]
Response: 21.6 µL/min/mg

Request: Name the reported microsomal CLint value associated with the compound Cc1cccnc1CN1CCN(c2cc(CC(C)C)cc(F)c2-c2nn[nH]n2)C[C@@H]1C [Compound A-228]
Response: 97.6 µL/min/mg

Request: Name the reported microsomal CLint value associated with the compound CC(C)Cc1ccc(-c2nn[nH]n2)c(N2CCN(Cc3ccnn3C)CC2)c1 [Compound A-84]
Response: 40 µL/min/mg

Request: Name the reported microsomal CLint value associated with the compound Cc1cc(CN2CCN(c3cc(CC(C)C)ccc3-c3nn[nH]n3)CC2)no1 [Compound A-82]
Response: 15 µL/min/mg

Request: Name the reported microsomal CLint value associated with the compound CCC1CN(Cc2cccnn2)CCN1c1cc(CC(C)C)cc(F)c1-c1nn[nH]n1 (stereo not drawn) [Compound A-181]
Response: 12 µL/min/mg

---

- METHOD SUMMARY: Plasma protein binding (equilibrium dialysis), mouse
- Type: in vitro ADME
- SETUP CONDITIONS: equilibrium dialysis, read-out: PPB (%), mouse (converted)
Each entry below carries its reported fraction unbound.
The answer should be written as a number, with no unit following it.

The examples below pair each entry with its known result.
MOLECULE	fraction unbound
CCC1CN(c2cc(CC(C)C)cc(F)c2-c2nn[nH]n2)CCN1Cc1cccnn1 (stereo not shown)	0.1
CCC1CN(Cc2cccnn2)CCN1c1cc(CC(C)C)cc(F)c1-c1nn[nH]n1 (stereo not shown)	0.07
CC(C)Cc1cc(F)c(-c2nn[nH]n2)c(N2CCN(Cc3cccnn3)C(C)C2)c1 (stereo not shown)	0.12
CC(C)Cc1cc(F)c(-c2nn[nH]n2)c(N2CC(C)N(Cc3cccnn3)CC2C)c1 (stereo not shown)	0.13
CC(C)Cc1cc(F)c(-c2nn[nH]n2)c(N2CCN(Cc3cccnn3)[C@@H](C)C2)c1	0.027

Request: Name the reported fraction unbound value associated with the molecule "CC(C)Cc1ccc(-c2nn[nH]n2)c(N2CCN(Cc3cccnn3)CC2)c1"
Response: 0.22

---

Each entry below carries its reported recovery.
- METHOD SUMMARY: Plasma protein binding (equilibrium dialysis), mouse
- Assay type: in vitro ADME
- SETUP CONDITIONS: plasma (undiluted, freshly thawed), PPB assay recovery

The examples below pair each entry with its known result.
COMPOUND	recovery
CCC1CN(Cc2cccnn2)CCN1c1cc(CC(C)C)cc(F)c1-c1nn[nH]n1 (stereo not shown)	96%
CC(C)Cc1ccc(-c2nn[nH]n2)c(N2CCN(Cc3cccnn3)CC2)c1	97%
CC(C)Cc1cc(F)c(-c2nn[nH]n2)c(N2CCN(Cc3cccnn3)C(C)C2)c1 (stereo not shown)	92%

Field: next compound
Request: Name the reported recovery value associated with the compound CCC1CN(c2cc(CC(C)C)cc(F)c2-c2nn[nH]n2)CCN1Cc1cccnn1 (stereo not shown)
Response: 93%

---

- MEASUREMENT TARGET: human AT2R fused to Cb23 (Homo sapiens, UniProt P50052)
- Sequence (P50052 whole entry, looked up, the tested form may be a part): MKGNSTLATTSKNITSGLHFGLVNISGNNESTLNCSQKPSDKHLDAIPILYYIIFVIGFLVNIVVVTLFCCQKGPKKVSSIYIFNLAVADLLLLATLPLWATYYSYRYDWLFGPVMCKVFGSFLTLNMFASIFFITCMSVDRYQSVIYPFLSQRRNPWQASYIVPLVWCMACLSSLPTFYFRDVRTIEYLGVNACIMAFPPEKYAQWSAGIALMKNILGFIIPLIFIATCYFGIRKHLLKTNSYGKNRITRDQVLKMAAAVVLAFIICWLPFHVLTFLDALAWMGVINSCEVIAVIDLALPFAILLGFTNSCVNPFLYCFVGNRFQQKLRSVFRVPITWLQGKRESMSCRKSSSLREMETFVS
- METHOD SUMMARY: Radioligand binding assay, displacement of 125I-[Sar1, Ile8]-Angiotensin II, hAT2R Cb23
- SETUP CONDITIONS: displacement of 125I-[Sar1, Ile8]-Angiotensin II, human AT2R fused to Cb23, HEK-293 cell membrane preparations; read-out: Binding affinity on hAT2R_Cb23 IC50
RECORDED METRIC: pIC50
// pIC50: -log10(molar conc.)

COMPOUND	MEASUREMENT TARGET	pIC50
c1ccc(-c2nn[nH]n2)c(CN2CCN(c3nc4ccccc4s3)CC2)c1 [Compound A-03]	human AT2R fused to Cb23 (Homo sapiens, UniProt P50052)	4.80
CCS(=O)(=O)NC(=O)c1ccc(OC(C)C)cc1CN1CCN(c2nc3ccccc3s2)CC1 [Compound A-39]	human AT2R fused to Cb23 (Homo sapiens, UniProt P50052)	5.55
Cc1cc(=O)nc(CN2CCN(c3cc(CC(C)C)ccc3-c3nn[nH]n3)CC2)[nH]1 [Compound A-100]	human AT2R fused to Cb23 (Homo sapiens, UniProt P50052)	4.78

Field: next compound
Request: Name the reported pIC50 value associated with the compound Cc1noc(C)c1CN1CCN(c2cc(CC(C)C)ccc2-c2nn[nH]n2)CC1 [Compound A-101]
Response: 5.35

---

Each entry below carries its reported Mass retention (%).
- METHOD SUMMARY: PAMPA (Parallel Artificial Membrane Permeability Assay), GIT model
- Assay type: in vitro ADME
Report the value in % with no unit label.

COMPOUND STRUCTURE	Mass retention (%)
CCCCNC(=O)NS(=O)(=O)c1ccc(C)cc1N1CCN(Cc2nc3ccccc3n2C)CC1	7
CC(C)Oc1ccc(-c2nn[nH]n2)c(N2CCN(Cc3nc4ccccc4n3C)CC2)c1	24
CC(C)Oc1ccc(-c2nn[nH]n2)c(N2CCN(Cc3nc4ccccc4c(=O)[nH]3)CC2)c1	20

Field: next compound
Request: Name the reported Mass retention (%) value associated with the compound "CCCCNC(=O)NS(=O)(=O)c1ccc(C(F)(F)F)cc1N1CCN(Cc2nc3ccccc3n2C)CC1"
Response: 8

---

- MEASUREMENT TARGET: human AT2R fused to Cb23 (Homo sapiens, UniProt P50052)
- METHOD SUMMARY: Radioligand binding assay, displacement of 125I-[Sar1, Ile8]-Angiotensin II, hAT2R Cb23
- SETUP CONDITIONS: displacement of 125I-[Sar1, Ile8]-Angiotensin II, human AT2R fused to Cb23, HEK-293 cell membrane preparations; read-out: Binding affinity on hAT2R_Cb23 IC50
pIC50: −log10 of the molar value.
Label scheme for pIC50: lower than 6 is False, 6 and above is True.

Field: example entries. Status: answers known.
COMPOUND	CLASS ASSIGNMENT
Cc1cc(CN2CCN(c3cc(CC(C)C)ccc3-c3nn[nH]n3)CC2)on1 [Compound A-89]	False
CC(C)Cc1cc(F)c(-c2nn[nH]n2)c(N2C[C@@H](C)N(Cc3cccnn3)[C@H](C)C2)c1 [Compound A-185]	True
COc1cc(F)c(-c2nn[nH]n2)c(N2CCN(Cc3cccnn3)CC2)c1 [Compound A-155]	False
CC(C)c1ccc(-c2nn[nH]n2)c(N2CCN(Cc3nc4ccccc4s3)CC2)c1 [Compound A-46]	False
CCC1CN(c2cc(CC(C)C)cc(F)c2-c2nn[nH]n2)CCN1Cc1cccnn1 (centres unmarked) [Compound A-178]	True

Request: Given the entry CC(C)Cc1cc(F)c(-c2nn[nH]n2)c(N2CCN(Cc3cccnn3)C(C)C2C)c1 (centres unmarked) [Compound A-188] , answer whether its pIC50 meets or surpasses 6.
Response: True

Request: Given the entry CCc1cc(OC(C)C)cc(N2CCN(Cc3nc4ccccc4s3)CC2)c1-c1nn[nH]n1 [Compound A-120] , answer whether its pIC50 meets or surpasses 6.
Response: True

Request: Given the entry CCOc1cc(-c2nn[nH]n2)c(N2CCN(Cc3nc4ccccc4s3)CC2)cc1OC(C)C [Compound A-123] , answer whether its pIC50 meets or surpasses 6.
Response: False

Request: Given the entry CCc1ccc(C(=O)NS(=O)(=O)CC)c(N2CCN(Cc3nc4ccccc4s3)CC2)c1 [Compound A-33] , answer whether its pIC50 meets or surpasses 6.
Response: False

Request: Given the entry CCc1ccc(-c2nn[nH]n2)c(N2CCN(Cc3nc4ccccc4s3)CC2)c1 [Compound A-45] , answer whether its pIC50 meets or surpasses 6.
Response: False

Request: Given the entry CC(C)Cc1ccc(-c2nn[nH]n2)c(N2CCN(Cc3cncn3C)CC2)c1 [Compound A-105] , answer whether its pIC50 meets or surpasses 6.
Response: False

Request: Given the entry CC(C)Cc1ccc(-c2nn[nH]n2)c(N2CCN(Cc3nn(C)c4ccccc34)CC2)c1 [Compound A-81] , answer whether its pIC50 meets or surpasses 6.
Response: False

Request: Given the entry Cc1nc(CN2CCN(c3cc(CC(C)C)ccc3-c3nn[nH]n3)CC2)cs1 [Compound A-87] , answer whether its pIC50 meets or surpasses 6.
Response: False
